Catalogue of abundance fitness readings, one per entry.
B1: Connector enhancer of kinase suppressor of ras 2, residues 9 to 71; numbered along this chain, Q8WXI2 (parent)
chain: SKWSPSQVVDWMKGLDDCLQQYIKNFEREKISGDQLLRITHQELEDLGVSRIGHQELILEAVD

# Variants of: B1
# assay method text: abundance fitness (aPCA) (normalised: wild type 0, dead -1); higher = more abundant; growth selection in yeast, the domain comes from the species named
# protocol conditions: Homo sapiens

For orientation, consider the following solved cases.
[[record]]
variant_identifier = "R38P"
measured_endpoint = "abundance fitness"
result = -0.681

[[record]]
variant_identifier = "E45Q"
measured_endpoint = "abundance fitness"
result = -0.007


[in] Can you share its abundance fitness? I mean this variant: Q55R
[out] 0.061

[in] Item D63N has what recorded abundance fitness?
[out] -0.024

[in] Could you tell me which abundance fitness is on file for I39M ?
[out] 0.009

[in] GET /values?readout=abundance fitness&item= K13Y
[out] -0.242

[in] Which abundance fitness is reported for this variant? I58N
[out] -0.851
